Would you mind telling me the reported viability at 48 h, 10 µM of each entry?
- testMethodNotes: toxicity evaluation, alamarBlue assay
- Assay type: cell-based, human
- experimentalParameters: human, MCF-10A cells; 10 μM, 48 h; read-out: percentage of viable cells

COc1ccc(C(c2cc(OC)c(OC)c(OC)c2)n2ccnc2)cc1O (centres unmarked) [21l] = ~30%

Read the next record carefully.
-- ask Returns the measured viability at 48 h, 10 µM for the input compound. Input: COc1ccc(C(c2cc(OC)c(OC)c(OC)c2)n2cncn2)cc1O (centres unmarked) [19e]
-- reply ~30%

---

- System: TK-10
- testMethodNotes: NCI 60 cell line screen (Renal Cancer)
- Type: cell-based, human
- experimentalParameters: TK-10, single dose 10 µM
Would you mind telling me the reported Growth percentage of each entry?
Numbers only, in %.

Previously resolved entries follow.
COc1ccc(C(c2cc(OC)c(OC)c(OC)c2)N2CCCC2)cc1 (centres unmarked) [25g] = 88.29
COc1ccc(C(c2cc(OC)c(OC)c(OC)c2)N2CCCCC2)cc1 (centres unmarked) [26b] = 57.56
COc1ccc(C(c2cc(OC)c(OC)c(OC)c2)n2cncn2)cc1O (centres unmarked) [19e] = 61.31
COc1ccc(C(c2cc(OC)c(OC)c(OC)c2)N2CCN(Cc3ccccc3)CC2)cc1 (centres unmarked) [27d] = 84.76

Read the next record carefully.
-- ask Returns the measured Growth percentage for the input molecule. Input: COc1ccc(C(c2cc(OC)c(OC)c(OC)c2)n2ccnc2)cc1O (centres unmarked) [21l]
-- reply 52.86

---

- testMethodNotes: toxicity evaluation, alamarBlue assay
- Type: cell-based, human
- experimentalParameters: human, MCF-10A cells; 0.1 μM, 72 h; read-out: percentage of viable cells
measuredParameter: viability at 72 h, 0.1 µM
State the value, then name its unit.

-- ask Returns the measured viability at 72 h, 0.1 µM for the input compound. Input: COc1ccc(C(c2cc(OC)c(OC)c(OC)c2)n2nccn2)cc1O (stereo not shown) [compound 24]
-- reply 96%

---

- Test system: HOP-92
- testMethodNotes: NCI 60 cell line screen (Non-Small Cell Lung Cancer)
- Assay type: cell-based, human
- experimentalParameters: HOP-92, single dose 10 µM
One threshold, 40%, splits the recorded Growth percentage values: lower ones are class 1, equal or higher ones are class 0.

-- ask # TODO verify Growth percentage < 40% strictly for this molecule: COc1ccc(C(c2cc(OC)c(OC)c(OC)c2)N2CCCCC2)cc1 (centres unmarked) [26b]
-- reply class 0

---

- testedOn: CYP1A1 (Homo sapiens, UniProt P04798)
- Sequence (P04798 whole entry): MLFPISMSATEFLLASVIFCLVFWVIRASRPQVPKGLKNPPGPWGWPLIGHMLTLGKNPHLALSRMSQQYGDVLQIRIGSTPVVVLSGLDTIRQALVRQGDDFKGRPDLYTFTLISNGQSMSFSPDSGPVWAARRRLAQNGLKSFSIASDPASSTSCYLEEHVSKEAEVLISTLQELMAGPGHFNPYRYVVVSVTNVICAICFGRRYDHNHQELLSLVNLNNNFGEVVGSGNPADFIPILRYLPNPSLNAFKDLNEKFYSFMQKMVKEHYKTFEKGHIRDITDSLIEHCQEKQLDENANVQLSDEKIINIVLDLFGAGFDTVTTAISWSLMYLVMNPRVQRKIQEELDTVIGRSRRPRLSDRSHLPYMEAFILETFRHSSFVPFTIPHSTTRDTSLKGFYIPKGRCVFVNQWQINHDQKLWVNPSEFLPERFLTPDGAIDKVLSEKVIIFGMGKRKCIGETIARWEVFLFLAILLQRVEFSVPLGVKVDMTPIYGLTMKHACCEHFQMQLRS
- testMethodNotes: cytochrome P450 assay (DBF fluorescence)
- experimentalParameters: human, recombinant CYP1A1, pH 7.4, probe dibenzylfluorescein (DBF), 2.0 μM
measuredParameter: inhibition at 25 min, 20 µg/mL (%)
Numbers only, in %.

Previously resolved entries follow.
COc1ccc(C(c2cc(OC)c(OC)c(OC)c2)n2cncn2)cc1O (stereo not drawn) [19e] = 18.1
COc1ccc(C(c2cc(OC)c(OC)c(OC)c2)n2ccnc2)cc1O (stereo not drawn) [21l] = 18.4

Read the next record carefully.
-- ask Returns the measured inhibition at 25 min, 20 µg/mL for the input compound. Input: COc1ccc(C(c2cc(OC)c(OC)c(OC)c2)n2nccn2)cc1O (stereo not drawn)
-- reply 12.8
